The values you see were collected from the Human Domainome abundance scans (Beltran et al. 2025).

Quick reference: abundance fitness of the listed items.
B1: FERM and PDZ domain-containing protein 4, residues 75 to 154; numbered along this chain, Q14CM0 (parent)
chain: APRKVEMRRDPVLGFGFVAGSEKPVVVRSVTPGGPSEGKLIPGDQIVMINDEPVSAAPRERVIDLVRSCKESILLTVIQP

# Variants of: B1
# MEASUREMENT PROTOCOL: abundance fitness (aPCA) (normalised: wild type 0, dead -1); higher = more abundant; growth selection in yeast, the domain comes from the species named
# CONDITION: Homo sapiens
Please reply with the value in numeric form only.

variant_designation=S55F reported_result=-0.143
variant_designation=R3T reported_result=-0.338
variant_designation=S36H reported_result=-0.741
variant_designation=V30L reported_result=-0.115
variant_designation=N50Q reported_result=-0.094
variant_designation=G34D reported_result=-0.84
variant_designation=A1T reported_result=-0.278
variant_designation=F15K reported_result=-0.905
variant_designation=A57L reported_result=0.032
variant_designation=K23Q reported_result=-0.039

Problem: Return reported abundance fitness; argument: R59F
Result: 0.005

Problem: Request the reported abundance fitness associated with V30R
Result: -0.914

Problem: Entry P80D has what abundance fitness?
Result: -0.28
